B1: EEHEE_rd4_0647 (parent)
chain: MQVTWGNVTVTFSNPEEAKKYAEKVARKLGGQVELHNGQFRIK

Variants of: B1
Assay: folding stability dG (cDNA display proteolysis); higher = more stable
Protocol Conditions: PBS, room temperature
Please note: fulfilled applies when folding stability dG is 2 kcal/mol or greater, and not fulfilled applies otherwise.

These recorded examples may help you get a feel for the data.
F40S: not fulfilled
R41H: fulfilled
R27C: fulfilled
H36N: fulfilled
K28E: fulfilled

Quick check: does "V25S" have folding stability dG greater than or equal to 2 kcal/mol?
not fulfilled

Quick check: does "F40E" have folding stability dG greater than or equal to 2 kcal/mol?
not fulfilled

Quick check: does "Q39N" have folding stability dG greater than or equal to 2 kcal/mol?
fulfilled

Quick check: does "H36V" have folding stability dG greater than or equal to 2 kcal/mol?
fulfilled

Quick check: does "F40W" have folding stability dG greater than or equal to 2 kcal/mol?
fulfilled

Quick check: does "Q32K" have folding stability dG greater than or equal to 2 kcal/mol?
fulfilled

Quick check: does "L29I" have folding stability dG greater than or equal to 2 kcal/mol?
fulfilled

Quick check: does "Q39H" have folding stability dG greater than or equal to 2 kcal/mol?
fulfilled

Quick check: does "E16H" have folding stability dG greater than or equal to 2 kcal/mol?
fulfilled

Attribution: the MegaScale stability set (Tsuboyama et al. 2023)
